Test system: A498
EXPERIMENT_SUMMARY: Cytotoxicity against human A498 cells after 72 hrs by MTT assay
Type: functional, cell-based
ASSAY_CONTEXT: A498, 72 h
Provide the recorded IC50 for the entries that follow.
Give bare numbers, in µM.

>>> print(df.to_string())
                                   compound  test_target  measured_quantity  unit_name  value
0  CC(=O)O[C@@H]1OC=C2[C@@H](OC(C)=O)C[C@@H]3[C@](C)(CC[C@H]4[C@@]3(C)CC[C@H]3C(C)(C)CCC[C@@]34CO)[C@H]21         A498               IC50         µM    0.7

For every record below, what is its IC50?
1. CC(=O)OC[C@]12CCCC(C)(C)[C@@H]1CC[C@@]1(C)[C@@H]3C[C@H](OC(C)=O)C4=CO[C@@H](OC(C)=O)[C@@H]4[C@@]3(C)CC[C@@H]12
2. CC1(C)CCC[C@@]2(CO)[C@H]1CC[C@]1(C)[C@@H]2CC[C@]2(C)C3=C(C(=O)O[C@H]3O)C(O)C[C@@H]12 (mixture of isomers)

[A]
1. 5.7
2. 40.7

* * *

Provide the recorded pIC50 for the entries that follow.
System: A498
EXPERIMENT_SUMMARY: Cytotoxicity against human A498 cells after 72 hrs by MTT assay
Format: functional, cell-based
ASSAY_CONTEXT: A498, 72 h
Numbers only, as −log10 of the molar value.

// worked examples, pIC50 included
MOLECULE	pIC50
CCN(CC)CCNC(=O)c1c(C)[nH]c(/C=C2\C(=O)Nc3ccc(F)cc32)c1C [SUNITINIB]	5.37
CC(=O)OC[C@]12CCCC(C)(C)[C@@H]1CC[C@@]1(C)[C@@H]3CC=C4C(=O)O[C@@H](O)[C@@H]4[C@@]3(C)CC[C@@H]12	5.89

As a next step, examine the molecule that follows.
For record CO[C@H]1C[C@@H]2CC[C@@H](C)[C@@](O)(O2)C(=O)C(=O)N2CCCC[C@H]2C(=O)O[C@H]([C@H](C)C[C@@H]2CC[C@@H](OC(=O)C(C)(CO)CO)[C@H](OC)C2)CC(=O)[C@H](C)/C=C(\C)[C@@H](O)[C@@H](OC)C(=O)[C@H](C)C[C@H](C)/C=C/C=C/C=C/1C [TEMSIROLIMUS] the listed pIC50 is 4.46

* * *

Provide the recorded IC50 for the entries that follow.
Test system: PANC-1
EXPERIMENT_SUMMARY: Cytotoxicity against human PANC1 cells after 72 hrs by MTT assay
Assay type: functional, cell-based
ASSAY_CONTEXT: PANC-1, 72 h

// worked examples, IC50 included
>>> df
                                   compound  measured_quantity    value
0  CC1(C)CCC[C@@]2(CO)[C@H]1CC[C@@]1(C)[C@@H]3CC=C(C=O)[C@H](C=O)[C@@]3(C)CC[C@@H]12 [12-DEACETOXY-23-HYDROXYSCALARADIAL]               IC50  34.3 µM
1  CC(=O)O[C@@H]1OC=C2[C@@H](OC(C)=O)C[C@@H]3[C@](C)(CC[C@H]4[C@@]3(C)CC[C@H]3C(C)(C)CCC[C@@]34CO)[C@H]21               IC50   0.4 µM
2  CC1(C)CCC[C@]2(C)[C@H]3CC[C@@]4(C)[C@@H](CC=C(C=O)[C@@H]4C=O)[C@]3(C)CC[C@@H]12 [12-DEACETOXYSCALARADIAL]               IC50  38.8 µM

For every record below, what is its IC50?
1. CC(=O)OC[C@]12CCCC(C)(C)[C@@H]1CC[C@@]1(C)[C@@H]3CC=C4C(=O)O[C@@H](O)[C@@H]4[C@@]3(C)CC[C@@H]12
2. Nc1ccn([C@@H]2O[C@H](CO)[C@@H](O)C2(F)F)c(=O)n1 [GEMCITABINE]

[A]
1. 1.3 µM
2. > 50 µM

For every record below, what is its IC50?
1. CC(=O)OC[C@]12CCCC(C)(C)[C@@H]1CC[C@]1(C)[C@@H]2C[C@@H](OC(C)=O)[C@]2(C)c3cocc3CC[C@@H]12
2. CC(=O)OC[C@]12CCCC(C)(C)[C@@H]1CC[C@@]1(C)[C@@H]3C[C@H](OC(C)=O)C4=CO[C@@H](OC(C)=O)[C@@H]4[C@@]3(C)CC[C@@H]12
3. CC1(C)CCC[C@@]2(CO)[C@H]1CC[C@]1(C)[C@@H]2CC[C@]2(C)C3=C(C(=O)O[C@H]3O)C(O)C[C@@H]12 (mixture of isomers)

[A]
48 µM
1.6 µM
> 50 µM

* * *

System: ACHN
EXPERIMENT_SUMMARY: Cytotoxicity against human ACHN cells after 72 hrs by MTT assay
Format: functional, cell-based
MEASURED_QUANTITY: pIC50
Answers are plain numbers, as −log10 of the molar value.

// worked examples, pIC50 included
                            molecule_smiles  value
0  CC(=O)OC[C@]12CCCC(C)(C)[C@@H]1CC[C@@]1(C)[C@@H]3CC=C4C(=O)O[C@@H](O)[C@@H]4[C@@]3(C)CC[C@@H]12   5.89
1  CC(=O)O[C@@H]1OC=C2[C@@H](OC(C)=O)C[C@@H]3[C@](C)(CC[C@H]4[C@@]3(C)CC[C@H]3C(C)(C)CCC[C@@]34CO)[C@H]21   6.40
2  CCN(CC)CCNC(=O)c1c(C)[nH]c(/C=C2\C(=O)Nc3ccc(F)cc32)c1C   5.24

As a next step, examine the molecule that follows.
For record CC(=O)OC[C@]12CCCC(C)(C)[C@@H]1CC[C@@]1(C)[C@@H]3C[C@H](OC(C)=O)C4=CO[C@@H](OC(C)=O)[C@@H]4[C@@]3(C)CC[C@@H]12 the listed pIC50 is 5.24
